# Tested on: Toxoplasma gondii RH-2F tachyzoites
# ASSAY NAME: microbe, parasite or virus in culture
# PARTICULARS: 72 h, read-out: Parasite inhibition (%) mean, preliminary screen of compound library, mean
Counter-ions that a name gives are not always drawn.

{"COMPOUND": "COc1cc(/C=C/C(=O)N2CCN(CC(=O)N3CCCC3)CC2)cc(OC)c1OC [Cinepazide maleate]", "inhibition of growth at 5 µM, %": 1.5}
{"COMPOUND": "Cc1cc(SCc2sc(-c3ccc(C(F)(F)F)c(F)c3)nc2C)ccc1OCC(=O)O", "inhibition of growth at 5 µM, %": 23.4}
{"COMPOUND": "CC(C)c1nc(CN(C)C(=O)N[C@@H](CCN2CCOCC2)C(=O)N[C@H](CC[C@H](Cc2ccccc2)NC(=O)OCc2cncs2)Cc2ccccc2)cs1 [Cobicistat (GS-9350)]", "inhibition of growth at 5 µM, %": 0.8}
{"COMPOUND": "CCc1cc2c(cc1CC)CC(NC[C@H](O)c1ccc(O)c3[nH]c(=O)ccc13)C2 [Indacaterol Maleate]", "inhibition of growth at 5 µM, %": -8.9}
{"COMPOUND": "CC(C)c1cc(-c2ccc(F)c3ccccc23)nc(N)n1", "inhibition of growth at 5 µM, %": -0.7}
{"COMPOUND": "COC(=O)Nc1ccc(-c2nc(N3CCOCC3)c3cnn(C4CCN(Cc5cccnc5)CC4)c3n2)cc1", "inhibition of growth at 5 µM, %": 28.7}
{"COMPOUND": "CN(C)c1ccc(C(=O)NCCCCCCC(=O)NO)cc1", "inhibition of growth at 5 µM, %": 44.6}
{"COMPOUND": "COCCCN1CCC(NC(=O)c2cc(Cl)c(N)c3c2OCC3)CC1 [Prucalopride]", "inhibition of growth at 5 µM, %": -7.6}

====

This section presents compounds with their documented inhibition of growth at 5 µM values.
# Tested on: Toxoplasma gondii RH-2F tachyzoites
# ASSAY NAME: microbe, parasite or virus in culture
# PARTICULARS: 72 h, read-out: Parasite inhibition (%) mean, preliminary screen of compound library, mean
Structures can show the parent of a compound that is named as a salt.
QUANTITY NAME: inhibition of growth at 5 µM (%)

{"COMPOUND": "CNCCc1ccccn1 [Betahistine 2HCl]", "VALUE MEASURED": 3.2}
{"COMPOUND": "CNC(=O)c1c(F)cccc1Nc1nc(Nc2cc3c(cc2OC)CCN3C(=O)CN(C)C)nc2[nH]ccc12 [GSK1838705A]", "VALUE MEASURED": 70.9}
{"COMPOUND": "Cc1n[nH]c2ccc(-c3cncc(OC[C@@H](N)Cc4ccccc4)c3)cc12", "VALUE MEASURED": 67.7}
{"COMPOUND": "CC1(C)CCC(CN2CCN(c3ccc(C(=O)NS(=O)(=O)c4ccc(NCC5CCOCC5)c([N+](=O)[O-])c4)c(Oc4cnc5[nH]ccc5c4)c3)CC2)=C(c2ccc(Cl)cc2)C1", "VALUE MEASURED": 70.8}
{"COMPOUND": "COC[C@H](NC(=O)c1cnc(C)s1)C(=O)N[C@@H](COC)C(=O)N[C@@H](Cc1ccccc1)C(=O)C1(C)CO1 (stereo partly shown)", "VALUE MEASURED": 9}
{"COMPOUND": "CCOc1nc2cccc(C(=O)OCc3oc(=O)oc3C)c2n1Cc1ccc(-c2ccccc2-c2nc(=O)o[nH]2)cc1", "VALUE MEASURED": 35.5}
{"COMPOUND": "CNCC(=O)c1ccc(O)c(O)c1 [Adrenalone HCl]", "VALUE MEASURED": 17.8}
{"COMPOUND": "CCCCCCCCc1ccc(CCC(N)(CO)CO)cc1", "VALUE MEASURED": 10}
{"COMPOUND": "Cc1ncc(-c2ccnc(Nc3ccc(S(C)(=O)=O)cc3)n2)n1C(C)C", "VALUE MEASURED": 6.8}
{"COMPOUND": "C[C@H](NC(=O)Cc1cc(F)cc(F)c1)C(=O)N[C@@H]1C(=O)N(C)c2ccccc2-c2ccccc21", "VALUE MEASURED": 1.4}
{"COMPOUND": "CC(C)C(=O)Oc1ccc(CO)cc1[C@H](CCN(C(C)C)C(C)C)c1ccccc1 [Fesoterodine fumarate (Toviaz)]", "VALUE MEASURED": 0.2}
{"COMPOUND": "COc1ccccc1Oc1c(NS(=O)(=O)c2ccc(C(C)(C)C)cc2)nc(-c2ncccn2)nc1OCCO [Bosentan Hydrate]", "VALUE MEASURED": 5.3}
{"COMPOUND": "CCN(CC)CCOC(=O)c1ccc(N)cc1 [Procaine (Novocaine) HCl]", "VALUE MEASURED": 3.7}
{"COMPOUND": "Cn1sc(=O)n(Cc2ccccc2)c1=O", "VALUE MEASURED": 12.8}
{"COMPOUND": "CNC(=O)c1ccc(-c2cnc3ncc(Cc4ccc5ncccc5c4)n3n2)cc1F", "VALUE MEASURED": 89.8}
{"COMPOUND": "CS(=O)(=O)N1CCc2c(-c3cnc(N)nc3)nc(N3CCOCC3)nc21", "VALUE MEASURED": 48.9}
{"COMPOUND": "CN[C@@H](C)C(=O)N[C@H]1CN(C(=O)CC(C)C)CC[C@H]2CC[C@@H](C(=O)NC(c3ccccc3)c3ccccc3)N2C1=O", "VALUE MEASURED": 33.5}
{"COMPOUND": "N[C@@]1(C(=O)O)CS(=O)(=O)[C@H]2[C@H](C(=O)O)[C@H]21", "VALUE MEASURED": 2.9}
{"COMPOUND": "CC(C)NC[C@@H](C(=O)N1CCN(c2ncnc3c2[C@H](C)C[C@H]3O)CC1)c1ccc(Cl)cc1", "VALUE MEASURED": 35.4}
{"COMPOUND": "O=C(O)[C@H](Cc1c[nH]c2ccccc12)N1C(=O)c2ccccc2C1=O", "VALUE MEASURED": 2.5}
{"COMPOUND": "O=C(NCCS(=O)(=O)c1ccc(C(F)(F)F)cn1)c1ccc(Cl)cc1", "VALUE MEASURED": 9}
{"COMPOUND": "C[C@H](Nc1ncnc2[nH]cnc12)c1cc2cccc(Cl)c2c(=O)n1-c1ccccc1", "VALUE MEASURED": 1.9}
{"COMPOUND": "CN1CCN(c2nc(C3=C(c4c[nH]c5ccccc45)C(=O)NC3=O)c3ccccc3n2)CC1", "VALUE MEASURED": 40.4}
{"COMPOUND": "O=C(Cc1ccc(-c2ccc(OCCN3CCOCC3)cc2)cn1)NCc1ccccc1", "VALUE MEASURED": 7.6}
{"COMPOUND": "NC(=O)N1CCC(CC(=O)N2CCC([C@H]3c4ncc(Br)cc4CCc4cc(Cl)cc(Br)c43)CC2)CC1 [Lonafarnib (SCH66336)]", "VALUE MEASURED": 0.4}
{"COMPOUND": "Cc1ccc(O)c([C@H](CCN(C(C)C)C(C)C)c2ccccc2)c1 [Tolterodine tartrate (Detrol LA)]", "VALUE MEASURED": 2.2}
{"COMPOUND": "C[N+]1(C)[C@@H]2C[C@@H](OC(=O)C(O)(c3cccs3)c3cccs3)C[C@H]1[C@@H]1O[C@@H]12 [Tiotropium Bromide hydrate]", "VALUE MEASURED": -0.7}
{"COMPOUND": "O=C(Nc1ccccc1Br)N[C@@H]1CCN(c2ccc(C(F)(F)F)cn2)C1", "VALUE MEASURED": 0.6}
{"COMPOUND": "NC[C@H](CC(=O)O)c1ccc(Cl)cc1 [(R)-baclofen]", "VALUE MEASURED": 23.1}
{"COMPOUND": "CCc1nc(-c2cccc(C)c2)c(-c2ccnc(NC(=O)c3ccccc3)c2)s1", "VALUE MEASURED": 22.5}
{"COMPOUND": "CO[C@H]1C(=O)[C@@]2(C)[C@H]([C@@H](OC(=O)c3ccccc3)[C@@]3(O)C[C@H](OC(=O)[C@H](O)[C@@H](NC(=O)OC(C)(C)C)c4ccccc4)C(C)=C1C3(C)C)[C@]1(OC(C)=O)CO[C@@H]1C[C@H]2OC", "VALUE MEASURED": 2.3}
